Where do these numbers come from? They come from paper PMC12136788.

# Test Target: T1, UNK ZnF1-6 (called full-length) (human, UniProt Q9C0B0 30-357)
# T1 sequence: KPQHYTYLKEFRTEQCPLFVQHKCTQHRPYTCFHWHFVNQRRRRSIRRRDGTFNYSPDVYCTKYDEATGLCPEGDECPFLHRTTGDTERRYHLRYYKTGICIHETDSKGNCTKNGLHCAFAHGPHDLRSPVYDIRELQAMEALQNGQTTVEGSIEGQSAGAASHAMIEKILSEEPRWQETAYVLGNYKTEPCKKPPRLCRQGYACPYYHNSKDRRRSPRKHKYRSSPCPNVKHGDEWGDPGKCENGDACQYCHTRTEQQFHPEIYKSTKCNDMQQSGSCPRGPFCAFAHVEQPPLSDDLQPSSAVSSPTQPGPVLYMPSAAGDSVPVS
# Protocol Notes: nsRBNS (natural sequence RNA bind-n-seq); RBNS binding buffer (assumed for nsRBNS): 25 mM Tris pH 7.5, 150 mM KCl, 3 mM MgCl2, 0.01% Triton X-100, 500 ug/ml BSA, 20 U/ml SUPERase-In, 4 C; UNK is unkempt and MSI1 is Musashi-1; names of the RNAs are library labels; protein concentration not given here; high values mean tight binding
The full ranking holds about 5,800 sequences; the median of “enrichment r” is about 0.68, and the highest 2% start at about 11. Only a selection was taken, and the highest values are over-represented in it overall.
This section presents binders with their documented binding signal values.
Report as a plain number; the unit enrichment R is understood.

Consider the reported binding signal for these binders:
Binder: chr8:74853834:74853946:+|3pUTR|ENSG00000137558|unk|FALSE|unique (ssRNA) RNA: GGGAGUUCUACAGUCCGACGAUCAAGUGCUUUUUUUUUUCUGAAUUAAUUAGGUAUUGGUAAAAUAUAUUUUUAAAUUUAGUUAGCUUUAUAAACACAAUUAGAAUUACAAUUAAUUAACAGAGGUAUAAUUGUCUCACUUUCCAACAGAGGAUUGAGCAUCA
U: enrichment R
binding signal: 171
--
Binder: chr3:121431430:121432303:-|three_prime_utr|ENSG00000051341|control|control|control (ssRNA) RNA: GGGAGUUCUACAGUCCGACGAUCUGGAAAGAACAGAGAUUACCCUUUCACCUACCUCAGCAAAACAAACUUUCAAGUCUUGAUAGACUUAGCCUAGUAAUUUUAUAGUGAGAGUUUCAAACUAUAUAUCAGUGUCUAUAGCAUCAACAGAGGAUUGAGCAUCA
U: enrichment R
binding signal: 8.5
--
Binder: chr21:43695798:43695899:+|3pUTR|ENSG00000160208|msi1|FALSE|unique (ssRNA) RNA: GGGAGUUCUACAGUCCGACGAUCACAAUAUUUUGUAAAAUGAUGCUUCCCCCUUCUCCAUGGUCUAGUCAAUUUUGUACAAUUAGGUAUCUGACUUUACAAGUUUGUUAUCCUUUCUAAUUUUUACUGAACUGAAAGCACAAACAACAGAGGAUUGAGCAUCA
U: enrichment R
binding signal: 1.9
--
Binder: chr6:119178661:119178762:-|3pUTR|ENSG00000111885|msi1|FALSE|unique (ssRNA) RNA: GGGAGUUCUACAGUCCGACGAUCGAAAGAAGCUUUGCCAAUUUUACUUAUUCGUGAUCAAUCAAGGAAAAUCUAAUAAAUUUUAGGCCAAAUAAGAAUAUAGCAUAUUUAGUAUGGUUAUAGUCAACACAGAGAUCACAACUUCAACAGAGGAUUGAGCAUCA
U: enrichment R
binding signal: 2.15
--
Binder: chr4:150265445:150265561:-|3pUTR|ENSG00000198589|unk|total|mutant (ssRNA) RNA: GGGAGUUCUACAGUCCGACGAUCGGAUCCGCAAAGCAGAAAACUGGCUGCUGGGUUCUGCCGUUUUAAAAAAUCUAUAUUUUCCGUCAUAAUGAGAAGUCUAUUUUCACCAAUUAUGGAAACAUACAGUGGAGCAAGUAAACCCAACAGAGGAUUGAGCAUCA
U: enrichment R
binding signal: 0.438
--
Binder: chr9:122240152:122240253:-|3pUTR|ENSG00000119446|msi1|FALSE|unique (ssRNA) RNA: GGGAGUUCUACAGUCCGACGAUCCUUCUUGGAGUAUAGAAUUCACCAUUUUAUCCGUAAGUCUUCAAAGGAUUAUGGUGGACUAGAACUUACAUAGUGCAAAAUAGUCUUCUAUUUUUAAUAGGAACUUAGAAAAAACUUAGACAACAGAGGAUUGAGCAUCA
U: enrichment R
binding signal: 41.4

Request: Answer with the recorded binding signal of chr17:81921741:81921842:-|3pUTR|ENSG00000197063|msi1|FALSE|unique (ssRNA) RNA: GGGAGUUCUACAGUCCGACGAUCAAUUAUAUGUUUAAAAGUUAAAGAAAAAAGAGCUGCAGAGUAUUUAUAAAACUGUCUUUUAGAAAAAAAACAAGCAAGAAGACCAUUUGACCAUAUGAAUGGAAAAGGGAAGAAAGUAUACAACAGAGGAUUGAGCAUCA only.
Result: 2.78
